Origin of the recorded values: the supplement of paper PMC7877785

test details: self-splicing fitness, log relative to wild type (ln ratio); higher = more splicing; Tetrahymena group I intron in knt gene, E. coli kanamycin selection, DiMSum; sequences stand for … in CUCUCU…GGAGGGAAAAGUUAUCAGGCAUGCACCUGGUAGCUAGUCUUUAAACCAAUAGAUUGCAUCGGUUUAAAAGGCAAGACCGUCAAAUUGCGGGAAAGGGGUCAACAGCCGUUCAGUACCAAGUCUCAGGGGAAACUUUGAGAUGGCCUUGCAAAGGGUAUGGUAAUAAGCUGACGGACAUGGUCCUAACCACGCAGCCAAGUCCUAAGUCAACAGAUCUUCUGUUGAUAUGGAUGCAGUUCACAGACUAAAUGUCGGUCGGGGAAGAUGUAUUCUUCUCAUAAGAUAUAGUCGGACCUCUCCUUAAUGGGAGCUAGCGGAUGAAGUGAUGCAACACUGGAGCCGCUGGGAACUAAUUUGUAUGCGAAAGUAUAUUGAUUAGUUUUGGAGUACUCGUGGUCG;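 further: selection with 25 µg/mL kanamycin versus none on LB agar overnight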
run conditions: 37 °C
Rule: self-splicing fitness (ln) under -1 gives 0 (no), otherwise 1 (yes).

Solved cases (5 shown):
* CCGUAGCAAUAUUACGCCUC | 0 (no)
* UCUAAGCAAUAUUACGUAGG | 0 (no)
* AUCCAGCAAUAUUACGUUAC | 0 (no)
* GCAUAGCAAUAUUACGUACU | 1 (yes)
* GUCCAGCAAUAUUACGGAGU | 1 (yes)

# input Could you please find out whether `GCCCAGCAAUAUUACGUGCA` has self-splicing fitness (ln) that meets -1 or exceeds it?
# output 1 (yes)

# input Dear colleague, could you confirm whether `CUUUAGCAAUAUUACGCCCG` has self-splicing fitness (ln) at or above -1?
# output 1 (yes)

# input Quick check: does `UAGAAGCAAUAUUACGAGCG` have self-splicing fitness (ln) greater than or equal to -1?
# output 1 (yes)

# input Does the reported self-splicing fitness (ln) for `GGGUAGCAAUAUUACGAAAC` fall at or above the -1 mark?
# output 1 (yes)

# input Does `CUCAAGCAAUAUUACGACGC` have a reported self-splicing fitness (ln) of at least -1?
# output 0 (no)

# input Check the entry `CUCUAGCAAUAUUACGCAUG` : does self-splicing fitness (ln) equal or exceed -1?
# output 0 (no)

# input Decide: is the reported value of self-splicing fitness (ln) for `GACGAGCAAUAUUACGACUG` equal to or greater than -1?
# output 1 (yes)

# input Is the recorded value of self-splicing fitness (ln) equal to or greater than -1 for this sequence? `UCCCAGCAAUAUUACGCCGU`
# output 0 (no)

# input Is self-splicing fitness (ln) for `AUAAAGCAAUAUUACGCGGU` at or above -1?
# output 1 (yes)

# input Decide: self-splicing fitness (ln) of `ACAUAGCAAUAUUACGCUUA` >= -1?
# output 0 (no)

# input Determine whether measured self-splicing fitness (ln) meets or exceeds -1 for `CCAUAGCAAUAUUACGGUCA`
# output 0 (no)

# input Test whether the sequence `UCCAAGCAAUAUUACGUGCU` records self-splicing fitness (ln) of -1 or higher.
# output 0 (no)
